measurement.target: 5-hydroxytryptamine receptor 1D (Homo sapiens)
assay.procedure: Maximum stimulation of [35S]GTP-gamma-S, binding in CHO cells expressing human 5-HT-1d relative to 5-HT
Type: functional, cell-based
The entries below come with measured Efficacy values attached.
Write the number in % without appending the unit.

Some entries whose results are on file:
compound_structure=C[C@H](O)[C@H](NC1CCN(CCCc2c[nH]c3ccc(-n4cnnc4)cc23)CC1)c1ccccc1 numeric_readout=81
compound_structure=O=C1N[C@@H](Cc2ccc3[nH]cc(CCCN4CCC(N[C@@H](CO)c5ccccc5)CC4)c3c2)CO1 numeric_readout=83
compound_structure=CC(=O)Nc1ccc(CN(C)CC2CCN(CCCc3c[nH]c4ccc(-n5cnnc5)cc34)CC2)cc1 numeric_readout=94

Item "OC[C@@H](Cc1ccccc1)NC1CCN(CCCc2c[nH]c3ccc(-n4cnnc4)cc23)CC1" was tested on 5-hydroxytryptamine receptor 1D (Homo sapiens); the reported Efficacy is 74

----------
measurement.target: 5-hydroxytryptamine receptor 1D (Homo sapiens, UniProt P28221)
Sequence (P28221 whole entry): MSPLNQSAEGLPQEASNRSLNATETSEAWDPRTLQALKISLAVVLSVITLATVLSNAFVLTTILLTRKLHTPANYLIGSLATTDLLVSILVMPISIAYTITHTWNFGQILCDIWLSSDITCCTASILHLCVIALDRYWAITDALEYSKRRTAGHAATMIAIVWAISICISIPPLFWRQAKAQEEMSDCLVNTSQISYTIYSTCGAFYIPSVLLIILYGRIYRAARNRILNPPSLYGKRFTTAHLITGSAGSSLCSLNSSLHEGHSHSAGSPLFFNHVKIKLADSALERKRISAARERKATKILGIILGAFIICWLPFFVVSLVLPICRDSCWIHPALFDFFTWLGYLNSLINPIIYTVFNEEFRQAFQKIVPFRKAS
assay.procedure: Maximum stimulation of [35S]GTP-gamma-S, binding in CHO cells expressing human 5-HT-1d relative to 5-HT
Type: functional, cell-based
attribute.measured: Efficacy (%)
Supply the numeric figure in %, leaving out any unit text.

Example entries begin here.
molecule=C[C@@H](NC1CCN(CCCc2c[nH]c3ccc(-n4cnnc4)cc23)CC1)[C@H](O)c1ccccc1 measurement_target="5-hydroxytryptamine receptor 1D (Homo sapiens, UniProt P28221)" numeric_readout=76
molecule=OC[C@@H](NC1CCN(CCCc2c[nH]c3ccc(-n4cnnc4)cc23)CC1)c1ccccc1 measurement_target="5-hydroxytryptamine receptor 1D (Homo sapiens, UniProt P28221)" numeric_readout=67
molecule=CN(Cc1ccccc1)CC1CCN(CCCc2c[nH]c3ccc(-n4cnnc4)cc23)CC1 measurement_target="5-hydroxytryptamine receptor 1D (Homo sapiens, UniProt P28221)" numeric_readout=93
molecule="c1ccc2c(c1)CCC2NC1CCN(CCCc2c[nH]c3ccc(-n4cnnc4)cc23)CC1 (centres undefined)" measurement_target="5-hydroxytryptamine receptor 1D (Homo sapiens, UniProt P28221)" numeric_readout=68
molecule=C[C@@H](NC1CCN(CCCc2c[nH]c3ccc(-n4cnnc4)cc23)CC1)c1ccccc1 measurement_target="5-hydroxytryptamine receptor 1D (Homo sapiens, UniProt P28221)" numeric_readout=90
molecule=c1cc(CNC2CCN(CCCc3c[nH]c4ccc(-n5cnnc5)cc34)CC2)ccn1 measurement_target="5-hydroxytryptamine receptor 1D (Homo sapiens, UniProt P28221)" numeric_readout=80
molecule=CN(Cc1ccoc1)C1CCN(CCCc2c[nH]c3ccc(-n4cnnc4)cc23)CC1 measurement_target="5-hydroxytryptamine receptor 1D (Homo sapiens, UniProt P28221)" numeric_readout=87
molecule=OC[C@H](NC1CCN(CCCc2c[nH]c3ccc(-n4cnnc4)cc23)CC1)c1ccccc1 measurement_target="5-hydroxytryptamine receptor 1D (Homo sapiens, UniProt P28221)" numeric_readout=95
molecule=C[C@@H](NC1CCN(CCCc2c[nH]c3ccc(-n4ccnc4)cc23)CC1)c1ccccc1 measurement_target="5-hydroxytryptamine receptor 1D (Homo sapiens, UniProt P28221)" numeric_readout=65
molecule=OC[C@H](NC1CCN(CCCc2c[nH]c3ccc(-n4ccnc4)cc23)CC1)c1ccccc1 measurement_target="5-hydroxytryptamine receptor 1D (Homo sapiens, UniProt P28221)" numeric_readout=74

// Efficacy value for "COC[C@H](NC1CCN(CCCc2c[nH]c3ccc(-n4cnnc4)cc23)CC1)c1ccccc1" : 93

Efficacy reading for "CN(C1CCN(CCCc2c[nH]c3ccc(-n4cnnc4)cc23)CC1)[C@@H](CO)c1ccccc1" : 82

Efficacy measured on "CN(Cc1ccsc1)C1CCN(CCCc2c[nH]c3ccc(-n4cnnc4)cc23)CC1" = 93

So, "c1ccc(CNC2CCN(CCCc3c[nH]c4ccc(-n5cnnc5)cc34)CC2)cc1" ? Its Efficacy was 76

Data point: "CC(C)=CCN(C)C1CCN(CCCc2c[nH]c3ccc(-n4cnnc4)cc23)CC1" ; Efficacy = 115

Given item "C[C@H](Cc1ccccc1)NC1CCN(CCCc2c[nH]c3ccc(-n4cnnc4)cc23)CC1" , the value recorded as its Efficacy is 71

Given item "NC(=O)OC[C@H](NC1CCN(CCCc2c[nH]c3ccc(-n4cnnc4)cc23)CC1)c1ccccc1" , the value recorded as its Efficacy is 73

Sample "OC[C@H](Cc1ccccc1)NC1CCN(CCCc2c[nH]c3ccc(-n4cnnc4)cc23)CC1" ; Efficacy observed: 76

Field Efficacy (entry "Oc1nc2ccccc2n1C1CCN(CCCc2c[nH]c3ccc(-n4cnnc4)cc23)CC1" ) reads 72
